Could you please report measured Ratio IC50 for the items listed next?
# System: Human immunodeficiency virus 1
# Assay Summary: Selectivity ratio of IC50 for HIV1 12465 harboring protease M46I/I54V/Q58E/T74P/V82L/L90M mutant infected in human MT2 cells to IC50 for HIV1 NL4-3 infected in human MT2 cells
# Assay type: functional

Known results for compounds:
• Nc1nc(-c2ccc(OCc3cccc(C(=O)NCCNC(=O)c4ccc(COc5ccc(Cl)cc5-c5csc(N)n5)cc4)c3)cc2)cs1.O=C(O)C(F)(F)F.O=C(O)C(F)(F)F = 2
• Nc1nc(-c2ccc(OCc3cccc(C(=O)NCCNC(=O)c4ccc(COc5ccccc5-c5csc(N)n5)cc4)c3)cc2)cs1.O=C(O)C(F)(F)F.O=C(O)C(F)(F)F = 0.9
• Nc1ccc(NCCNC(=O)c2ccc(COc3ccccc3-c3csc(N)n3)cc2)nc1.O=C(O)C(F)(F)F.O=C(O)C(F)(F)F.O=C(O)C(F)(F)F = 1.6
• Nc1nc(CCOC(=O)c2ccc(COc3ccccc3-c3csc(N)n3)cc2)cs1.O=C(O)C(F)(F)F.O=C(O)C(F)(F)F = 1.2

Prompt: Specify Ratio IC50 for `Nc1nc(-c2ccc(OCc3cccc(C(=O)NCCNC(=O)c4ccc(COc5ccc(F)cc5-c5csc(N)n5)cc4)c3)cc2)cs1.O=C(O)C(F)(F)F.O=C(O)C(F)(F)F` , system Human immunodeficiency virus 1.
Completion: 1.8

* * *

Could you please report measured inhibition for the items listed next?
# Assay Summary: Inhibition of synthesized Nucleocapsid protein (11 to 55 residues) assessed as reduction in NC-induced cTAR DNA destabilization pre-treated with cTAR and Nucleocapsid (11-55) for 15 mins followed by compound addition at 10 uM by spectroflurometry relative to control

Known results for compounds:
• Nc1nc(CCOC(=O)c2ccc(COc3ccccc3-c3csc(N)n3)cc2)cs1.O=C(O)C(F)(F)F.O=C(O)C(F)(F)F = 18%
• Nc1nc(CCNC(=O)c2ccc(COc3ccccc3-c3csc(N)n3)cc2)cs1 = 16%
• Nc1ccc(NCCNC(=O)c2ccc(COc3ccccc3-c3csc(N)n3)cc2)nc1.O=C(O)C(F)(F)F.O=C(O)C(F)(F)F.O=C(O)C(F)(F)F = 15%
• Nc1nc(-c2ccc(OCc3cccc(C(=O)NCCNC(=O)c4ccc(COc5ccccc5-c5coc(N)n5)cc4)c3)cc2)co1 = 21%
• Nc1nc(-c2ccc(OCc3cccc(C(=O)NCCCCNC(=O)c4ccc(COc5ccccc5-c5csc(N)n5)cc4)c3)cc2)cs1 = 19%
• Nc1nc(-c2ccc(OCc3cccc(C(=O)N4CCN(C(=O)c5ccc(COc6ccccc6-c6csc(N)n6)cc5)CC4)c3)cc2)cs1 = 15%

Prompt: Give the measured inhibition for `Nc1nc(-c2ccc(C(=O)NCCCNC(=O)c3ccc(COc4ccccc4-c4csc(N)n4)cc3)cc2)cs1`
Completion: 15%

* * *

# Tested on: Human immunodeficiency virus 1
# Assay Summary: Antiviral activity against HIV1 12229 harboring non-nucleoside reverse transcriptase L100I/K103N/H221Y mutant infected in human TZM-bl cells infected with supernatants from virus-infected human MT2 cells treated with compound for 72 hrs assessed as reduction in viral replication after 48 hrs by bright Glo-luciferase reporter gene assay
# Assay type: functional, organism-based
# Test Parameters: Human immunodeficiency virus 1, 12229
Could you please report measured IC50 for the items listed next?
Answers are plain numbers, in nM.

Known results for compounds:
- Nc1nc(CCOC(=O)c2ccc(COc3ccccc3-c3csc(N)n3)cc2)cs1.O=C(O)C(F)(F)F.O=C(O)C(F)(F)F: 300
- Nc1nc(-c2ccc(OCc3cccc(C(=O)NCCNC(=O)c4ccc(COc5ccccc5-c5csc(N)n5)cc4)c3)cc2)cs1.O=C(O)C(F)(F)F.O=C(O)C(F)(F)F: 2200
- Nc1ccc(NCCNC(=O)c2ccc(COc3ccccc3-c3csc(N)n3)cc2)nc1.O=C(O)C(F)(F)F.O=C(O)C(F)(F)F.O=C(O)C(F)(F)F: 12000
- Nc1nc(-c2ccc(OCc3cccc(C(=O)NCCNC(=O)c4ccc(COc5ccc(Cl)cc5-c5csc(N)n5)cc4)c3)cc2)cs1.O=C(O)C(F)(F)F.O=C(O)C(F)(F)F: 1000

Consider the additional compound presented here.
Prompt: Give the measured IC50 for `Nc1nc(-c2ccc(OCc3cccc(C(=O)NCCNC(=O)c4ccc(COc5ccc(F)cc5-c5csc(N)n5)cc4)c3)cc2)cs1.O=C(O)C(F)(F)F.O=C(O)C(F)(F)F`
Completion: 900
